B1: Chromodomain-helicase-DNA-binding protein 4, residues 365 to 417; numbered along this chain, Q14839 (parent)
chain: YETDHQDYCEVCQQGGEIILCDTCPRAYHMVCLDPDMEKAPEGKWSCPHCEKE

Variants of: B1
Assay: abundance fitness (aPCA) (normalised: wild type 0, dead -1); higher = more abundant; growth selection in yeast, the domain comes from the species named
Conditions: Homo sapiens
Please enter yes (1) where abundance fitness is greater than or equal to -0.1, and no (0) where it is lower.

Use these answered entries as a reference point.
Given C32S , state whether its abundance fitness is at least -0.1.
no (0)

Given E53R , state whether its abundance fitness is at least -0.1.
yes (1)

Given C21W , state whether its abundance fitness is at least -0.1.
no (0)

Given Y28E , state whether its abundance fitness is at least -0.1.
no (0)

Given L20N , state whether its abundance fitness is at least -0.1.
yes (1)

Given A40G , state whether its abundance fitness is at least -0.1.
no (0)

---
Given E10I , state whether its abundance fitness is at least -0.1.
yes (1)

Given G43D , state whether its abundance fitness is at least -0.1.
no (0)

Given D34F , state whether its abundance fitness is at least -0.1.
no (0)

Given E51S , state whether its abundance fitness is at least -0.1.
no (0)

Given H29A , state whether its abundance fitness is at least -0.1.
no (0)

Given G16F , state whether its abundance fitness is at least -0.1.
no (0)

Given E10K , state whether its abundance fitness is at least -0.1.
yes (1)
